Where do the numbers come from? From ChEMBL document CHEMBL4609985.

Please provide measured MCC at 96 h for the entries that follow.
- assay_info: Cytotoxicity against MDCK cells assessed as minimum cytotoxic concentration after 4 days by MTS assay
- Type: cell-based, Canis lupus familiaris
- test_parameters: dog
Please reply with the bare figure in nM and do not write the unit itself.

Check the records and state MCC at 96 h for Cc1c(C(=O)NN2C(=O)C(C)SC23CCC(C)CC3)[nH]c2ccc(Cl)cc12 (stereo not drawn)
870

Check the records and state MCC at 96 h for CCC1CCC2(CC1)SC(C)C(=O)N2NC(=O)c1[nH]c2ccc(Cl)cc2c1C (stereo not drawn)
3000

----------
- Tested on: Influenza A virus H3N2
- assay_info: Antiviral activity against IInfluenza A virus H3N2 A/HK/7/87 infected in MDCK cells after 4 days by MTS assay
- Assay type: functional, organism-based
- test_parameters: A/HK/7/87, MDCK, 96 h
parameter: EC50

Provide Influenza A virus H3N2 EC50 reading for Cc1c(C(=O)NN2C(=O)C(C)SC23CCC(C(C)(C)C)CC3)[nH]c2ccc(Cl)cc12 (centres undefined) .
> 100 µM

Provide Influenza A virus H3N2 EC50 reading for Cc1c(C(=O)NN2C(=O)C(C)SC23CC(C)CC(C)(C)C3)[nH]c2ccc(Cl)cc12 (centres undefined) .
> 100 µM

Provide Influenza A virus H3N2 EC50 reading for Cc1c(C(=O)NN2C(=O)CSC23CC(C)CC(C)(C)C3)[nH]c2ccc(Cl)cc12 (centres undefined) .
> 100 µM

Provide Influenza A virus H3N2 EC50 reading for `Cc1c(C(=O)NN2C(=O)CSC23CCCC3)[nH]c2ccc(Cl)cc12` .
> 100 µM

Provide Influenza A virus H3N2 EC50 reading for Cc1c(C(=O)NN2C(=O)C(C)SC23CCCCC3C)[nH]c2ccc(Cl)cc12 (centres undefined) .
> 100 µM

Provide Influenza A virus H3N2 EC50 reading for Cc1nc2sccn2c1C(=O)NN1C(=O)C(C)SC12CCC(C)CC2 (centres undefined) .
3.2 µM

Provide Influenza A virus H3N2 EC50 reading for CCCC1CCC2(CC1)SC(C)C(=O)N2NC(=O)c1[nH]c2ccc(Cl)cc2c1C (centres undefined) .
> 100 µM

Provide Influenza A virus H3N2 EC50 reading for Cc1c(C(=O)NN2C(=O)C(C)SC23CCCCC3)[nH]c2ccc(Cl)cc12 (centres undefined) .
0.063 µM

Provide Influenza A virus H3N2 EC50 reading for Cc1c(C(=O)NN2C(=O)CSC23CCC(c2ccccc2)CC3)[nH]c2ccc(Cl)cc12 (centres undefined) .
> 100 µM
